Reported Activity values follow for various compounds
- Test system: A-375
- assay.details: Induction of apoptosis in human A375 cells assessed as necrotic cells at 10 uM after 48 hrs by annexin-v and PI staining based flow cytometry analysis (reference value: 1.17 +/- 0.41%)
- Assay type: functional
measured.metric: Activity (%)

>>> value_observed("CCOC(=O)/C=C1/C(=O)N2[C@@H]1SC(C)(C)[C@@H]2C(=O)OC(c1ccccc1)c1ccccc1")
20.8
>>> value_observed("CC1(C)S[C@@H]2/C(=C\\C(=O)OCc3ccccc3)C(=O)N2[C@H]1C(=O)OC(c1ccccc1)c1ccccc1")
24
>>> value_observed("CC1(C)S[C@@H]2/C(=C\\C(=O)OC(c3ccccc3)c3ccccc3)C(=O)N2[C@H]1C(=O)OC(c1ccccc1)c1ccccc1")
14.75
>>> value_observed("CC1(C)[C@H](C(=O)OC(c2ccccc2)c2ccccc2)N2C(=O)/C(=C/C(=O)c3ccccc3)[C@H]2[S+]1[O-] (some centres undefined)")
3

----------
- measured.target: Matrix metalloproteinase-9 (Homo sapiens) (UniProt P14780)
- Sequence (P14780 whole entry): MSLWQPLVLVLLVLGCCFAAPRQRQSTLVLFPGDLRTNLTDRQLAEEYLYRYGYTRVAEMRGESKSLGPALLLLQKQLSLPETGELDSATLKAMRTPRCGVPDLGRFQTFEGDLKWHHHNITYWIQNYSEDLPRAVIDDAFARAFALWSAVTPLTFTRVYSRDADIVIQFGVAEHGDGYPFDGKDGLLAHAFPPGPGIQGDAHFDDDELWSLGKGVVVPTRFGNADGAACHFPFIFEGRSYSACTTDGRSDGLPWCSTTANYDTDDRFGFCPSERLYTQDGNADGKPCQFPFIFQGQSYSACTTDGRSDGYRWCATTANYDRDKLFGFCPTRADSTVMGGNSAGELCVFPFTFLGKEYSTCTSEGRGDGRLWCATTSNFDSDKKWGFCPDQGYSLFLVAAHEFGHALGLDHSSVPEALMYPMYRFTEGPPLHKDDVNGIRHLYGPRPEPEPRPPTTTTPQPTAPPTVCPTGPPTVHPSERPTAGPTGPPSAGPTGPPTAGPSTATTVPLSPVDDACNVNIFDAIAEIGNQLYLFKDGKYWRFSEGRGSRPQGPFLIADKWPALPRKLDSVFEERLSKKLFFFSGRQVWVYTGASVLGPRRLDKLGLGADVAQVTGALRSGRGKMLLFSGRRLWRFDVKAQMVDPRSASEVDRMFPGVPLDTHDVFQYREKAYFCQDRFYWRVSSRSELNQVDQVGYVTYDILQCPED
- assay.details: Inhibition of MMP9 in human HT-1080 cells at 10 uM by gelatin zymography
- Assay type: cell-based
Calls of active or inactive are those of the source. The rule behind the calls is not given here.
measured.metric: inhibition

>>> value_observed("CC1(C)S[C@@H]2/C(=C\\C(=O)OCc3ccccc3)C(=O)N2[C@H]1C(=O)OC(c1ccccc1)c1ccccc1")
"Active"
>>> value_observed("COC(=O)/C=C1\\C[C@H]2SC(C)(C)[C@H](C(=O)OC(c3ccccc3)c3ccccc3)N2C1=O")
"52.9%"
>>> value_observed("CC1(C)S[C@@H]2/C(=C\\C(=O)c3ccc(F)cc3)C(=O)N2[C@H]1C(=O)OC(c1ccccc1)c1ccccc1")
"Active"
>>> value_observed("CC1(C)S[C@@H]2/C(=C\\C(=O)c3ccccc3)C(=O)N2[C@H]1C(=O)OC(c1ccccc1)c1ccccc1")
"Active"
>>> value_observed("CC1(C)S[C@@H]2/C(=C\\C(=O)OC(c3ccccc3)c3ccccc3)C(=O)N2[C@H]1C(=O)OC(c1ccccc1)c1ccccc1")
"Active"
>>> value_observed("CCOC(=O)/C=C1/C(=O)N2[C@@H]1SC(C)(C)[C@@H]2C(=O)OC(c1ccccc1)c1ccccc1")
"Active"
>>> value_observed("CC1(C)S[C@@H]2C/C(=C\\C(=O)c3ccccc3)C(=O)N2[C@H]1C(=O)OC(c1ccccc1)c1ccccc1")
"61.4%"

----------
- Test system: A-375
- assay.details: Induction of apoptosis in human A375 cells assessed as viable cells at 10 uM after 48 hrs by annexin-v and PI staining based flow cytometry analysis (reference value: 93.63 +/- 1.37%)
- Assay type: functional
- condition.parameters: read-out: Activity
Reported viability at 10 µM values follow for various molecules
measured.metric: viability at 10 µM

>>> value_observed("CCOC(=O)/C=C1/C(=O)N2[C@@H]1SC(C)(C)[C@@H]2C(=O)OC(c1ccccc1)c1ccccc1")
"63%"
>>> value_observed("CC1(C)[C@H](C(=O)OC(c2ccccc2)c2ccccc2)N2C(=O)/C(=C/C(=O)c3ccccc3)[C@H]2[S+]1[O-] (some centres undefined)")
"89.2%"
>>> value_observed("CC1(C)S[C@@H]2/C(=C\\C(=O)OCc3ccccc3)C(=O)N2[C@H]1C(=O)OC(c1ccccc1)c1ccccc1")
"56.2%"
>>> value_observed("CC1(C)S[C@@H]2/C(=C\\C(=O)OC(c3ccccc3)c3ccccc3)C(=O)N2[C@H]1C(=O)OC(c1ccccc1)c1ccccc1")
"73.5%"
